B1: CAMK2D (parent)
chain: LLKHPNIVRLHDSISEEGFHYLVF

Variants of: B1
assayRemarks: protein stability index of a GFP-peptide fusion (GPS, HEK-293T) (PSI 1-6); higher = more stable;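 note: lentivirally expressed fusions sorted by FACS into six bins by GFP to DsRed ratio, PSI derived from sequencing read proportions per bin multiplied by bin number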
conditionInfo: c terminus: a fixed tail appended
Cut-off 3 on protein stability index, inclusive. At or above means T; below means F.

seqString: LLKHPNIVRLHDSISEEGGHYLVF
class: F

seqString: LLKHPNIVRNHDSISEEGFHYLVF
class: F

seqString: LLKHPNIVRLHDSISEEGFHYVVF
class: F

seqString: LLKHPNIVRLHDSISEEGKHYLVF
class: T

seqString: LLKHPNIVRLHDGISEEGFHYLVF
class: F

seqString: LLKHPNIVRLHDSISEEGFHYLAF
class: F

seqString: LLKHPNIVRLHDSISEEGTHYLVF
class: T

seqString: LLKTPNIVRLHDSISEEGFHYLVF
class: F

seqString: LLKHPNIVRIHDSISEEGFHYLVF
class: F

seqString: LLKHPNIVRLHDSISEEGFKYLVF
class: F
